TEST TARGET: T1, hAMY3R (human, UniProt P30988)
T1 sequence 1: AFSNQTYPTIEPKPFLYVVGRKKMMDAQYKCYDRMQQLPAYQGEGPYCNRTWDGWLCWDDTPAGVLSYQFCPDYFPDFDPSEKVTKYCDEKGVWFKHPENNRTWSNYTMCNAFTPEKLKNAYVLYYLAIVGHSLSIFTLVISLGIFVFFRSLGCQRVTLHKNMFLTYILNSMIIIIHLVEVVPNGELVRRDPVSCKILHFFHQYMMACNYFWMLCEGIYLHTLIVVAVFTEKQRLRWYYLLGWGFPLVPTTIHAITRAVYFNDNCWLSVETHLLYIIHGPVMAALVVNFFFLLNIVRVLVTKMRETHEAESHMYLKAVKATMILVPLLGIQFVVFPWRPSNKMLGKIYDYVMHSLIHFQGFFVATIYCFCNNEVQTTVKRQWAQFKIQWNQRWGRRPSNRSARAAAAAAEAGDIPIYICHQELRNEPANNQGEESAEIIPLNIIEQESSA
T1 sequence 2: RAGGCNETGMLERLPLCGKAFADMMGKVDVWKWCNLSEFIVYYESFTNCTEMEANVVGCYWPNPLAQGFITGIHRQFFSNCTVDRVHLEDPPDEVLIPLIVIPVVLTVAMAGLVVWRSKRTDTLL
ASSAY REMARKS: cell-based or functional assay
Bridge positions count the residues as written; N and C are the ends. Square brackets hold non-standard residues; d marks the D form. Ends that are not written are not given here. Hyp = O=C(O)[C@@H]1C[C@@H](O)CN1; Cit = NC(=O)NCCC[C@H](N)C(=O)O
Threshold 0.03 nM: hAMY3R EC50 (cAMP) strictly smaller gives yes, otherwise no.

[
  {
    "BINDER": "GCRFGTCTVQWLAHQIYQFTDKDKDNVAPRTKIGPQG[Hyp]-NH2 (disulfide 2-7 (inferred); ends not checked) [SEQ ID NO: 336]",
    "ASSIGNED CLASS": "yes"
  },
  {
    "BINDER": "KCNTATCTVQWLAHQIYQFTDKDKDNVAAPTNVGSNG[Hyp]-NH2 (disulfide 2-7 (inferred); ends not checked) [SEQ ID NO: 325]",
    "ASSIGNED CLASS": "yes"
  },
  {
    "BINDER": "GCRFGTCTVQRLAHQIYQFTDKDKDNVAPRTNIGPQGY [SEQ ID NO: 379]",
    "ASSIGNED CLASS": "yes"
  },
  {
    "BINDER": "GCRTGTCTVQ[Cit]LAHQIYQFTDKDKDNVAPRTKVGPQGY-NH2 (disulfide 2-7 (inferred); ends not checked) [SEQ ID NO: 298]",
    "ASSIGNED CLASS": "no"
  },
  {
    "BINDER": "GCRTGTCTVQRLAHQIYQFTDKDKDNVAPRTKVSPQG[Hyp]-NH2 (disulfide 2-7 (inferred); ends not checked) [SEQ ID NO: 216]",
    "ASSIGNED CLASS": "no"
  },
  {
    "BINDER": "KCNTATCTVQ[Cit]LAHQIYQFTDKDKDNVPPTNVGSNG[Hyp]-NH2 (disulfide 2-7 (inferred); ends not checked) [SEQ ID NO: 254]",
    "ASSIGNED CLASS": "yes"
  },
  {
    "BINDER": "GCRTGTCTVQ[Cit]LAHQIYQFTDKDKDNVAPRSKIGPNG[Hyp]-NH2 (disulfide 2-7 (inferred); ends not checked) [SEQ ID NO: 299]",
    "ASSIGNED CLASS": "no"
  },
  {
    "BINDER": "KCNTSTCTVA[Cit]LADQITQFSNKDKAQVSPPTEVGPNS[Hyp]-NH2 (disulfide 2-7 (inferred); ends not checked) [SEQ ID NO: 244]",
    "ASSIGNED CLASS": "yes"
  },
  {
    "BINDER": "GCRFGTCTVQRLAHQIYQFTDKDKDNVAPRTNIGPNG[Hyp]-NH2 (disulfide 2-7 (inferred); ends not checked) [SEQ ID NO: 81]",
    "ASSIGNED CLASS": "yes"
  },
  {
    "BINDER": "GCRFGTCTVQRLAHQIYQFTDKDKDNVAPRTKIGPQGY [SEQ ID NO: 391]",
    "ASSIGNED CLASS": "no"
  }
]

Hello, the source for this data is patent US12139520B2, in case you need it.
